pKi: −log10 of the molar value.
Consider compounds characterized by their pKi with hCA II (Homo sapiens, UniProt P00918).

>  <record_smiles>
Cc1ccc2nc(NC(=O)CNC(=O)OC(C)(C)C)sc2c1

>  <pKi>
4.13

$$$$
>  <record_smiles>
CS(=O)(=O)c1ccc2nc(NC(=O)CNC(=O)OCC3c4ccccc4-c4ccccc43)sc2c1

>  <pKi>
< 4.00

$$$$
>  <record_smiles>
CCOc1ccc2nc(NC(=O)CNC(=O)OC(C)(C)C)sc2c1

>  <pKi>
< 4.00

$$$$

###

# Ki listing for each entry below
Molecular target: hCA V (Homo sapiens)
Sequence (P35218 39-305): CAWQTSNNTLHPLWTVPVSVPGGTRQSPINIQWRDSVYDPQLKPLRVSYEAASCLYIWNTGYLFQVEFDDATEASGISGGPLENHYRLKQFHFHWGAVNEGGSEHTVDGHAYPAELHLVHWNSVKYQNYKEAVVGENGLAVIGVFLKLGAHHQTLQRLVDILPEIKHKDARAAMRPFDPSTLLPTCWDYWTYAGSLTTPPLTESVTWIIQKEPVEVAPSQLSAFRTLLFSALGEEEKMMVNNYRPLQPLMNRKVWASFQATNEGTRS
Assay: stopped flow CO2 hydrase assay, hCA V
Format: biochemical
Details: mean from three different assays, errors ±5–10%
Procedure: An applied photophysics stopped-flow instrument has been used for assaying the CA catalysed CO2 hydration activity by using method of Khalifah[34]. Phenol red (at a concentration of 0.2 mM) has been used as an indicator, working at the absorbance maximum of 557 nm, with 20 mM HEPES (pH 7.5) as buffer, and 20 mM Na2SO4 (for maintaining constant the ionic strength), following the initial rates of the CA-catalysed CO2 hydration reaction for a period of 10–100 s. […]

>  <compound>
Cc1ccc2nc(NC(=O)CNC(=O)OCC3c4ccccc4-c4ccccc43)sc2c1

>  <reading_unit>
µM

>  <qualifying_sign>
=

>  <Ki>
7.3

$$$$
>  <compound>
Cc1ccc2nc(NC(=O)CNC(=O)OCc3ccccc3)sc2c1

>  <reading_unit>
µM

>  <qualifying_sign>
=

>  <Ki>
4.3

$$$$
>  <compound>
CSCCC(NC(=O)OCc1ccccc1)C(=O)Nc1ccc(-c2nc3ccc(C)cc3s2)cc1 (stereo not shown)

>  <reading_unit>
µM

>  <qualifying_sign>
=

>  <Ki>
41.2

$$$$
>  <compound>
CCOc1ccc2nc(NC(=O)CNC(=O)OCc3ccccc3)sc2c1

>  <reading_unit>
µM

>  <qualifying_sign>
>

>  <Ki>
100

$$$$

From: paper PMC6327993
